test: Drug uptake in C57 mouse plasma at 80 mg/kg, po after 20 hrs by LC/MS analysis; type: ADME, organism-based; set-up: dose 80 mg/kg, route oral
measure: concentration at 20 h (nM)

[[record]]
smi = "Cc1cc(C2CCN(C(=O)[C@@H]3CN(C(C)(C)C)C[C@H]3c3ccc(F)cc3F)CC2)n(-c2ccc(F)c(F)c2)n1"
readout_number = 1910


###

test: Drug uptake in C57 mouse plasma at 10 mg/kg, po after 20 hrs by LC/MS analysis; type: ADME, organism-based; parameters: dose 10 mg/kg, route oral
measure: concentration at 20 h (nM)

[[record]]
smi = "CC(C)(C)N1C[C@@H](C(=O)N2CCC(c3ccnn3-c3ccc(F)c(Cl)c3)CC2)[C@H](c2ccc(F)cc2F)C1"
measure = "concentration at 20 h"
readout_number = 196


###

Recorded half-life by entry
assay: Half life in mouse at 0.5 mg/kg, iv and 1 mg/kg, po; type: ADME, organism-based; details: in vivo
measure: half-life

[[record]]
smi = "Cc1cc(C2CCN(C(=O)[C@@H]3CN(C(C)(C)C)C[C@H]3c3ccc(F)cc3F)CC2)n(-c2cc(Cl)ccc2Cl)n1"
result = "2.9 h"

[[record]]
smi = "Cc1cc(C2CCN(C(=O)[C@@H]3CN(C(C)(C)C)C[C@H]3c3ccc(F)cc3F)CC2)n(-c2ccc(Cl)cc2C)n1"
result = "3.1 h"

[[record]]
smi = "Cc1cc(C2CCN(C(=O)[C@@H]3CN(C(C)(C)C)C[C@H]3c3ccc(F)cc3F)CC2)n(-c2ccc(C)c(Cl)c2)n1"
result = "2.1 h"


###

Target: Lysosomal Pro-X carboxypeptidase (Mus musculus)
Sequence (Q7TMR0 whole entry): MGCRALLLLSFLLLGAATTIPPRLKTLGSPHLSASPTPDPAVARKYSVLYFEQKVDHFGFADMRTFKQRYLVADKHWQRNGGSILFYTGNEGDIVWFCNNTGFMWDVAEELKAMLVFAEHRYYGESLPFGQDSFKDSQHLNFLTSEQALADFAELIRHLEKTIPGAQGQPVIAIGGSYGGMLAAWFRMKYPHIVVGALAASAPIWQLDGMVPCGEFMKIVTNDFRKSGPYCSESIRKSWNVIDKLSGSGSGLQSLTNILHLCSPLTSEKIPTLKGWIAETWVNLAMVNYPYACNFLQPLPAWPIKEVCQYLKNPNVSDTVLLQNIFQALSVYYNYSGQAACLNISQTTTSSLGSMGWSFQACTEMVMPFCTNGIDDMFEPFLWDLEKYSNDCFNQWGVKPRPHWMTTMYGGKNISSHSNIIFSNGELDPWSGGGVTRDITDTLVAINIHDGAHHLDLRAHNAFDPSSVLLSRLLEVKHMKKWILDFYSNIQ
Entries and their measured IC50 follow.
measure: IC50 (nM)

[[record]]
smi = "Cc1cc(C2CCN(C(=O)[C@@H]3CN(C(C)(C)C)C[C@H]3c3ccc(F)cc3F)CC2)n(-c2ccc(F)c(F)c2)n1"
display_unit = "nM"
readout_number = 9.1

[[record]]
smi = "CC(C)(C)N1C[C@@H](C(=O)N2CCC(c3nnnn3-c3ccc(Cl)cc3)CC2)[C@H](c2ccc(F)cc2F)C1"
display_unit = "nM"
readout_number = 44

[[record]]
smi = "Cc1cc(C2CCN(C(=O)[C@@H]3CN(C(C)(C)C)C[C@H]3c3ccc(F)cc3F)CC2)n(-c2ccc(C)c(Cl)c2)n1"
display_unit = "nM"
readout_number = 1.1

[[record]]
smi = "Cc1cc(C2CCN(C(=O)[C@@H]3CN(C(C)(C)C)C[C@H]3c3ccc(F)cc3F)CC2)n(-c2ccc(Cl)c(F)c2)n1"
display_unit = "nM"
readout_number = 4.8

[[record]]
smi = "Cc1nc(C2CCN(C(=O)[C@@H]3CNC[C@H]3c3ccc(F)cc3F)CC2)n(-c2cc(Cl)ccc2Cl)n1"
display_unit = "nM"
readout_number = 30

[[record]]
smi = "Cc1cc(C2CCN(C(=O)[C@@H]3CN(C(C)(C)C)C[C@H]3c3ccc(F)cc3F)CC2)n(-c2ccc(Cl)cc2C)n1"
display_unit = "nM"
readout_number = 2.3

[[record]]
smi = "Cc1cc(C2CCN(C(=O)[C@@H]3CN(C(C)(C)C)C[C@H]3c3ccc(F)cc3F)CC2)n(-c2ccc(Cl)c(Cl)c2)n1"
display_unit = "nM"
readout_number = 1

[[record]]
smi = "Cc1cc(C2CCN(C(=O)[C@@H]3CN(C(C)(C)C)C[C@H]3c3ccc(F)cc3F)CC2)n(-c2ccc(F)cc2)n1"
display_unit = "nM"
readout_number = 30

[[record]]
smi = "Cc1cc(C2CCN(C(=O)[C@@H]3CN(C(C)(C)C)C[C@H]3c3ccc(F)cc3F)CC2)n(-c2cc(Cl)ccc2Cl)n1"
display_unit = "nM"
readout_number = 0.4

[[record]]
smi = "Cc1cc(C2CCN(C(=O)[C@@H]3CNC[C@H]3c3ccc(F)cc3F)CC2)n(-c2cc(Cl)ccc2Cl)n1"
display_unit = "nM"
readout_number = 4.4

[[record]]
smi = "Cc1cc(C2CCN(C(=O)[C@@H]3CN(C(C)(C)C)C[C@H]3c3ccc(F)cc3F)CC2)n(-c2ccc(F)c(Cl)c2)n1"
display_unit = "nM"
readout_number = 0.8

[[record]]
smi = "Cc1nc(C2CCN(C(=O)[C@@H]3CNC[C@H]3c3ccc(F)cc3F)CC2)n(-c2ccc(Cl)c(Cl)c2)n1"
display_unit = "nM"
readout_number = 49

[[record]]
smi = "Cc1nc(C2CCN(C(=O)[C@@H]3CNC[C@H]3c3ccc(F)cc3F)CC2)n(-c2ccc(F)c(Cl)c2)n1"
display_unit = "nM"
readout_number = 32

[[record]]
smi = "CC(C)(C)N1C[C@@H](C(=O)N2CCC(c3ccnn3-c3ccc(F)c(Cl)c3)CC2)[C@H](c2ccc(F)cc2F)C1"
display_unit = "nM"
readout_number = 0.3

[[record]]
smi = "Cc1cc(C2CCN(C(=O)[C@@H]3CN(C(C)(C)C)C[C@H]3c3ccc(F)cc3F)CC2)n(-c2ccc(F)cc2F)n1"
display_unit = "nM"
readout_number = 12

[[record]]
smi = "Cc1cc(C2CCN(C(=O)[C@@H]3CN(C(C)(C)C)C[C@H]3c3ccc(F)cc3F)CC2)n(-c2ccc(Cl)c(C)c2)n1"
display_unit = "nM"
readout_number = 2.9

